B1: HDV Ribozyme (parent)
chain: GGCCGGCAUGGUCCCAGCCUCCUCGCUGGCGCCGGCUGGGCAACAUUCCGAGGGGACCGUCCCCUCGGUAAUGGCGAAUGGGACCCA

Variants of: B1
method: self-cleavage, relative activity (ratio to wild type); higher = more cleavage; co-transcriptional
# self-cleavage per record follows
quantity.name: self-cleavage

>>> print(df.to_string())
    variant_string  quantity_name   value
 0       A43U C66U  self-cleavage   0.575
 1       U27A C30G  self-cleavage   0.166
 2        A8U A51G  self-cleavage   0.767
 3        A8C G28C  self-cleavage       0
 4       C26A C61G  self-cleavage    1.04
 5       G59U C61G  self-cleavage     1.2
 6        U9C U20G  self-cleavage   0.443
 7        G2U C21A  self-cleavage  0.0437
 8       A56C C85A  self-cleavage   0.806
 9        C7G A77U  self-cleavage  0.0875
10       G39A A56U  self-cleavage   0.676
11       U72C A83C  self-cleavage   0.332
12       U20A A45G  self-cleavage       0
13       U23A U79G  self-cleavage   0.665
14       C13G A78G  self-cleavage   0.111
15       C14A C15U  self-cleavage   0.192
16       G11A C75A  self-cleavage       0
17       C61U U65C  self-cleavage   0.914
18       G35C C62U  self-cleavage  0.0665
19       G67C A83C  self-cleavage   0.293
20       G11C A51G  self-cleavage   0.297
21        C7A G59U  self-cleavage   0.646
